method.description: Pharmacokinetic evaluation after intravenous or gavage administration to rats
Type: in vivo, SD rats
experimental.setup: SD, rat, in vivo, iv, 1 mg/kg
Protocol: The compounds disclosed herein were administered in form of a saline solution containing 5% DMSO, 5% Kolliphor HS 15, 2% (2% HCl) and 88% Saline, or a solution containing 10% DMSO, 10% Kolliphor HS 15 and 80% physiological saline to the subject animals. […] The above plasma samples were analyzed by the LC-MS/MS system.
measured.parameter: Cmax (ng/mL)
Give bare numbers, in ng/mL.

Worked cases, answers included:
input: Name the recorded Cmax for Cc1ccc(-n2nccn2)c(C(=O)N2CC3CN(c4nc5cc(Cl)ccc5o4)CC3C2)c1 (centres unmarked) .
output: 646

input: Ok, now O=C(c1ccccc1-n1nccn1)N1CC2CN(c3nc4cc(Cl)ccc4o3)CC2C1 (centres unmarked)
output: 639

input: Ok, now Cc1ccc(-n2nccn2)c(C(=O)N2CC3CN(c4ncc5cc(F)ccc5n4)CC3C2)c1 (centres unmarked)
output: 749

input: Ok, now O=C(c1c(F)cccc1-n1nccn1)N1CC2CN(c3nc4cc(Cl)ccc4o3)CC2C1 (centres unmarked)
output: 760

# next compound below
input: Name the recorded Cmax for O=C(c1ccccc1-n1nccn1)N1CC2CN(c3ncc4cc(F)ccc4n3)CC2C1 (centres unmarked) .
output: 1270

* * *

Let's go through some IC50 measurements on hERG channel (Homo sapiens, UniProt Q12809) together.
Sequence (Q12809 whole entry): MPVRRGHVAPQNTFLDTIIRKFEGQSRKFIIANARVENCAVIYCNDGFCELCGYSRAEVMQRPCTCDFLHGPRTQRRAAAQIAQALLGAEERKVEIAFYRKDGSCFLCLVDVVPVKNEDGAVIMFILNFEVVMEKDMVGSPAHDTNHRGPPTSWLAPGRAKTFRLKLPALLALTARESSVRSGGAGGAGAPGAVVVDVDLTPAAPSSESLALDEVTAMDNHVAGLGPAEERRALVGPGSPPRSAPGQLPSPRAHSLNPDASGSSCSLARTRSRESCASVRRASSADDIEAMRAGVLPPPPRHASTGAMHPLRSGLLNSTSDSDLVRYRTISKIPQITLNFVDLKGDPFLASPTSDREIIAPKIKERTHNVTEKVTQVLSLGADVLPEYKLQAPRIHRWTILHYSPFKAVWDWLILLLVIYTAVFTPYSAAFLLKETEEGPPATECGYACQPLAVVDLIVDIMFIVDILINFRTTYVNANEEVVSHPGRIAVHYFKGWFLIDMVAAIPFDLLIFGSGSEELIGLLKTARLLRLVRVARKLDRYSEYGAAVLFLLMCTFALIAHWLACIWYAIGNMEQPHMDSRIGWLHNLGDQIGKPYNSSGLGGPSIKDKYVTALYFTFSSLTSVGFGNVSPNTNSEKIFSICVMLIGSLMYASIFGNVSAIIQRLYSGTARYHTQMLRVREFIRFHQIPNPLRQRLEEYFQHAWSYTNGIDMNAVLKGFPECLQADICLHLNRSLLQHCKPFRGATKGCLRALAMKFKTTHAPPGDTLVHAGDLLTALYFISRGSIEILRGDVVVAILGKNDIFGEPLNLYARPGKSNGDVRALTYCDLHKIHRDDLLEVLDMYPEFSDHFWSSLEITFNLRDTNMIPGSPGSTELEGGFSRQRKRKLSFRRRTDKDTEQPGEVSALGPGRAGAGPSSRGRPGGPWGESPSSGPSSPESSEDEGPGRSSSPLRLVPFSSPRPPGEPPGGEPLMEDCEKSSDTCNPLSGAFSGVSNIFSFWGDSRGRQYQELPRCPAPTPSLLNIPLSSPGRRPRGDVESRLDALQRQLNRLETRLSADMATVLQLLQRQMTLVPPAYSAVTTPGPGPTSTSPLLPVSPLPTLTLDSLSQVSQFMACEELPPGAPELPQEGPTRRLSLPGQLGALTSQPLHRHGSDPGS
Number first, unit second: that is the form wanted.

input: Name the recorded IC50 for Cc1ccc(-n2nccn2)c(C(=O)N2CC3CN(c4nc5cc(Cl)ccc5o4)CC3C2)c1 (centres unmarked) .
output: 3280 nM

---
input: Name the recorded IC50 for Cc1ccc(-n2nccn2)c(C(=O)N2CCN(c3nc4cc(Cl)ccc4o3)CC[C@H]2C)c1 [suvorexant, reference compound] .
output: 1790 nM

* * *

method.description: Pharmacokinetic evaluation after intravenous or gavage administration to rats
Assay type: in vivo, SD rats
experimental.setup: SD, rat, in vivo, po, 2.5 mg/kg
Record form. Attribute: MRT inf. Fill in for each entry.
Answers are plain numbers, in h.

Worked cases, answers included:
input: Name the recorded MRT inf for Cc1ccc(-n2nccn2)c(C(=O)N2CC3CN(c4nc5cc(Cl)ccc5o4)CC3C2)c1 (centres unmarked) .
output: 3.03

input: Ok, now Cc1ccc(-n2nccn2)c(C(=O)N2CC3CN(c4ncc5cc(F)ccc5n4)CC3C2)c1 (centres unmarked)
output: 1.28

input: Ok, now O=C(c1ccccc1-n1nccn1)N1CC2CN(c3ncc4cc(F)ccc4n3)CC2C1 (centres unmarked)
output: 1.17

input: Ok, now O=C(c1c(F)cccc1-n1nccn1)N1CC2CN(c3nc4cc(Cl)ccc4o3)CC2C1 (centres unmarked)
output: 1.37

# next molecule below
input: Name the recorded MRT inf for O=C(c1ccccc1-n1nccn1)N1CC2CN(c3nc4cc(Cl)ccc4o3)CC2C1 (centres unmarked) .
output: 1.48

* * *

method.description: Pharmacokinetic evaluation after intravenous or gavage administration to dogs
Type: in vivo, Beagle dogs
experimental.setup: beagle, dog, in vivo, iv, 1 mg/kg
Description: The compounds disclosed herein were administered in form of a saline solution containing 5% DMSO, 5% Kolliphor HS 15, 2% (2% HCl) and 88% Saline, or a solution containing 10% DMSO, 10% Kolliphor HS 15 and 80% physiological saline to the subject animals. […] The above plasma samples were analyzed by the LC-MS/MS system.
measured.parameter: Vd
Number first, unit second: that is the form wanted.

Worked cases, answers included:
input: Name the recorded Vd for Cc1ccc(-n2nccn2)c(C(=O)N2CC3CN(c4nc5cc(Cl)ccc5o4)CC3C2)c1 (stereo not drawn) .
output: 1.83 L/kg

input: Ok, now O=C(c1c(F)cccc1-n1nccn1)N1CC2CN(c3nc4cc(Cl)ccc4o3)CC2C1 (stereo not drawn)
output: 1.75 L/kg

# next compound below
input: Name the recorded Vd for Cc1ccc(-n2nccn2)c(C(=O)N2CC3CN(c4ncc5cc(F)ccc5n4)CC3C2)c1 (stereo not drawn) .
output: 0.85 L/kg
